Molecular target: ligand binding domain of the estrogen receptor alpha chain (ERαLBD) (Homo sapiens)
Construct: expressed in transfected cells; host or cells: Huh-7 human hepatoma cells, transient transfection with FuGENE 6
Sequence (P03372 311-547 limits assumed): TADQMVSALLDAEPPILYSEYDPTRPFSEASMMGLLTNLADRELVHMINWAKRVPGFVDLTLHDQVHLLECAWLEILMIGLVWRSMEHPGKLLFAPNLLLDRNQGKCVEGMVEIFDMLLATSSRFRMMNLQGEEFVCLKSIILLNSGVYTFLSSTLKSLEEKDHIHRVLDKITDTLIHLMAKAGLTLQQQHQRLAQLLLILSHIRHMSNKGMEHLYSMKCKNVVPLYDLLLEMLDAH
Experiment: ER agonist cell assay (ERα), Huh-7 co-transfection, luciferase
Assay type: cell-based
Conditions: percent of the maximum estradiol fold change; Huh-7, pG5luc and ERαLBD
Protocol: The compounds ability to mimic the effects of estrogen on the estrogen receptor were determined in a whole cell assay as described immediately below. Experimental Procedure for ER Agonist Cell Assay […] Cells transfected 24 hrs earlier were harvested, counted, and seeded in wells containing compound at a density of 1×10^4 cells/well. […] Plates were incubated at room temperature for 20 minutes and firefly luminescence was measured on a luminometer. […]
Experimental readout: ERα % of Max E2 Response (%)

A. Oc1ccc(-c2noc(C3(c4nnc(-c5ccc(O)cc5O)o4)CC3)c2-c2ccccc2)cc1
B. COCCOC(=O)C1(c2onc(-c3ccc(O)cc3)c2-c2ccccc2)CC1
C. CCC(O)C1(c2onc(-c3ccc(O)cc3)c2-c2ccccc2)CC1 (racemic)
D. CC(C)CC(=O)OCC1(c2onc(-c3ccc(O)cc3)c2-c2ccccc2)CC1
INPUT: Place the item with the largest ERα % of Max E2 Response first, then continue in falling order, using the list above. Form entry: ranked labels (order as requested).
OUTPUT: C, D, B, A

I. Oc1ccc(-c2noc(C3(CNc4cccc(C(F)(F)F)c4)CC3)c2-c2ccccc2)cc1
II. Cc1ncccc1OCC1(c2onc(-c3ccc(O)cc3)c2-c2ccccc2)CC1
III. CC(O)C1(c2onc(-c3ccc(O)cc3)c2-c2ccccc2)CC1 (racemic)
INPUT: Reorder: ERα % of Max E2 Response, max to min. Give the labels in the order requested.
OUTPUT: III, II, I
(III: 79.3%, II: 26.2%, I: 11.4%)

---

Experimental readout: melting point

Some compounds with recorded melting point:
1) CC[C@H](O)C1(c2onc(-c3ccc(O)cc3)c2-c2ccccc2)CC1 [Example 100, Alt. F] = 165 to 166 °C
2) Cl.Oc1ccc(-c2noc(C3(CN4CCSCC4)CC3)c2-c2ccccc2)cc1 [Example 32] = 249 to 250 °C
3) CC(C)(O)C1(c2onc(-c3ccc(O)cc3)c2-c2ccccc2)CC1 [Example 49] = 212 to 213 °C

Looking up C[C@H](O)C1(c2onc(-c3ccc(O)cc3)c2-c2ccccc2)CC1 [Example 100, Alt. D] , I found its melting point recorded as 220 to 221 °C

For record `CN(C)CC1(c2onc(-c3ccc(O)cc3)c2-c2ccccc2)CC1.Cl` the listed melting point is 234 °C

Looking up Oc1ccc(-c2noc(C3(C(O)(C4CC4)C4CC4)CC3)c2-c2ccccc2)cc1 [Example 99] , I see its melting point listed as 169 to 170 °C

Sample CC1(c2onc(-c3ccc(O)cc3)c2-c2ccccc2)CC1 [Example 36] ; melting point observed: 212 to 214 °C

Notebook: Oc1ccc(-c2noc(C3(CNCC4CCCO4)CC3)c2-c2ccccc2)cc1 (racemic) [Example 30] , melting point read as 276 to 277 °C

response.value for NCC1(c2onc(-c3ccc(O)cc3)c2-c2ccccc2)CC1 [Example 105] (field: melting point) = 220 to 225 °C

Given item Cl.Oc1ccc(-c2noc(C3(CNc4ccc5c(c4)CCC5)CC3)c2-c2ccccc2)cc1 [Example 23] , the value recorded as its melting point is 204 to 205 °C

The recorded melting point for OCC1(c2onc(-c3ccc(O)cc3)c2-c2ccccc2)CC1 [Example 2] is 210 to 211 °C
